Attribution: paper PMC4399250

Tested on: PBMC
Test: MTT cytotoxicity assay on PBMC
Type: cell-based, human
Conditions: table section IIIB (X4), infected PBMC
Description: PBMC and TZM-bl viability was measured by the MTT [3-(4,5- dimethylthiazol-2-yl)-2,5-diphenyl tetrazolium bromide; Sigma] assay. Cells were seeded in 96-well plates in three replicates and were incubated for four (TZM-bl) or six (PBMC) days with different concentrations of the compounds or DMSO alone at 0.2% as control. Then 10μl of complete medium containing MTT (0.5 mg/ml) was added to each well. […] After vigorous shaking, absorbance was measured in a microplate reader at 490 nm.
metric: CC50 (µM)
Give bare numbers, in µM.

So, Cn1cc(NC(=O)c2cc(NC(=O)c3cc(NC=O)cn3C)cn2C)cc1C(=O)NCCC(=N)N [compound 4044, distamycin] ? Its CC50 was 30

* * *

test system: HIV-1 IIIB (X4); experiment: HIV-1 acute infection of PHA-activated PBMC, p24 ELISA, IIIB strain; assay type: cell-based; settings: IIIB (X4), infected PBMC, p24 day 7
metric: IC50

So, Cn1cc(NC(=O)c2cc(NC(=O)c3cc(NC=O)cn3C)cn2C)cc1C(=O)NCCC(=N)N ? Its IC50 was > 30 µM

* * *

test system: PBMC; assay: MTT cytotoxicity assay on PBMC; type: cell-based, human; conditions: table section BaL (R5), infected PBMC
metric: CC50 (µM)
Answers are plain numbers, in µM.

So, Cn1cc(NC(=O)c2cc(NC(=O)c3cc(NC=O)cn3C)cn2C)cc1C(=O)NCCC(=N)N [compound 4044, distamycin] ? Its CC50 was 25
